// provenance: patent US20250195521A1

- ASSAY_SYSTEM: KRAS Q61H (Homo sapiens (Human), UniProt P01116+P62937, Q61H)
- Sequence (P01116 other isoform, or with tags, fused parts or gaps Q61H): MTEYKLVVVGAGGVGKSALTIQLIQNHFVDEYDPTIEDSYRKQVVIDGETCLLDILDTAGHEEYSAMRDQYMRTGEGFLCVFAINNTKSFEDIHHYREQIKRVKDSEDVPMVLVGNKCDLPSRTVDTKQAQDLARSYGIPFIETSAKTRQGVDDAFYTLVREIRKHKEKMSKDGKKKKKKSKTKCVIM
- Sequence (P62937 whole entry): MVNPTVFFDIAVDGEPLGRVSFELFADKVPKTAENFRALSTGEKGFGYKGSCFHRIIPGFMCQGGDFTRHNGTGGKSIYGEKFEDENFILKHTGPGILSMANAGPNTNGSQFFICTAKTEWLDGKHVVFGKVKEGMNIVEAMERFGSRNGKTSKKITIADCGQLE
- TEST_SUMMARY: Ras-Raf disruption/FRET/MOA assay, KRAS Q61H
- Assay type: biochemical
MEASURED_PARAMETER: IC50

Answered examples (5):
Q) Please state recorded IC50 (tested on KRAS Q61H (Homo sapiens (Human), UniProt P01116+P62937, Q61H)) of CCn1c(-c2cccnc2[C@H](C)OC)c2c3cc(ccc31)-c1cc(O)cc(c1)C[C@H](NC(=O)[C@H](C(C)C)N(C)C(=O)[C@@]1(C)CCCN1C(=O)[C@@H]1CN1)C(=O)N1CCC[C@H](N1)C(=O)OCC(C)(C)C2
A) 10 to 100 nM

Q) Please state recorded IC50 (tested on KRAS Q61H (Homo sapiens (Human), UniProt P01116+P62937, Q61H)) of CCn1c(-c2cccnc2[C@H](C)OC)c2c3cc(ccc31)-c1cc(O)cc(c1)C[C@H](NC(=O)[C@H](C(C)C)N(C)C(=O)[C@]1(C)CCCN1C(=O)[C@H]1CN1)C(=O)N1CCC[C@H](N1)C(=O)OCC(C)(C)C2
A) 100 to 1000 nM

Q) Please state recorded IC50 (tested on KRAS Q61H (Homo sapiens (Human), UniProt P01116+P62937, Q61H)) of CCn1c(-c2cccnc2[C@H](C)OC)c2c3cc(ccc31)-c1cc(O)cc(c1)C[C@H](NC(=O)[C@@H](C(C)C)N(C)C(=O)[C@@]1(C)CCCN1C(=O)[C@@H]1CN1)C(=O)N1CCC[C@H](N1)C(=O)OCC(C)(C)C2
A) 100 to 1000 nM

Q) Please state recorded IC50 (tested on KRAS Q61H (Homo sapiens (Human), UniProt P01116+P62937, Q61H)) of CCn1c(-c2cccnc2[C@H](C)OC)c2c3cc(ccc31)-c1cc(O)cc(c1)C[C@H](NC(=O)[C@@H](C(C)C)N(C)C(=O)[C@@]1(C)CCCN1C(=O)[C@H]1CN1)C(=O)N1CCC[C@H](N1)C(=O)OCC(C)(C)C2
A) 100 to 1000 nM

Q) Please state recorded IC50 (tested on KRAS Q61H (Homo sapiens (Human), UniProt P01116+P62937, Q61H)) of CCn1c(-c2cccnc2[C@H](C)OC)c2c3cc(ccc31)-c1cc(O)cc(c1)C[C@H](NC(=O)[C@H](C(C)C)N(C)C(=O)[C@@H]1CO[C@H](C)CN1C(=O)[C@H]1CN1)C(=O)N1CCC[C@H](N1)C(=O)OCC(C)(C)C2
A) 10 to 100 nM

Now consider the entry below.
Q) Please state recorded IC50 (tested on KRAS Q61H (Homo sapiens (Human), UniProt P01116+P62937, Q61H)) of CCn1c(-c2cccnc2[C@H](C)OC)c2c3cc(ccc31)-c1cc(O)cc(c1)C[C@H](NC(=O)[C@H](C(C)C)N(C)C(=O)[C@]13C[C@H]1CCN3C(=O)[C@H]1CN1)C(=O)N1CCC[C@H](N1)C(=O)OCC(C)(C)C2
A) 10 to 100 nM

----------
- ASSAY_SYSTEM: KRAS G13C (Homo sapiens (Human), UniProt P01116+P62937, G13C)
- Sequence (P01116 other isoform, or with tags, fused parts or gaps G13C, one chain of several): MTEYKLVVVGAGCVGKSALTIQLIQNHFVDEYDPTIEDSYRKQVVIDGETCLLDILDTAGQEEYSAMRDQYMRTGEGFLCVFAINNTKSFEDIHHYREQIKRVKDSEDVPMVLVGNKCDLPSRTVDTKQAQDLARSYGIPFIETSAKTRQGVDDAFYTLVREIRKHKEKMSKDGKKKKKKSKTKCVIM
- TEST_SUMMARY: Ras-Raf disruption/FRET/MOA assay (BRAF RBD, Cyclophilin A)
- Assay type: biochemical
- TEST_SETTINGS: read-out: KRAS G13C FRET IC50
pIC50: −log10 of the molar value.
MEASURED_PARAMETER: pIC50

Answered examples (2):
Q) For the molecule CCn1c(-c2cccnc2[C@H](C)OC)c2c3cc(ccc31)-c1csc(n1)C[C@H](NC(=O)[C@H](C(C)C)N(C)C(=O)N(C)C[C@H]1CCCN1C)C(=O)N1CCC[C@H](N1)C(=O)OCC(C)(C)C2 [Compound A473] , what pIC50 is on record?
A) 6.00 to 7.00

Q) For the molecule CCn1c(-c2cccnc2[C@H](C)OC)c2c3cc(ccc31)-c1csc(n1)C[C@H](NC(=O)[C@H](C(C)C)N(C)C(=O)C1COC1)C(=O)N1CCC[C@H](N1)C(=O)OCC(C)(C)C2 [Compound A245] , what pIC50 is on record?
A) 5.00 to 6.00

New cases:
Q) For the molecule CCn1c(-c2cccnc2[C@H](C)OC)c2c3cc(ccc31)-c1cc(O)cc(c1)C[C@H](NC(=O)[C@H](C(C)C)N(C)C(=O)C1CC1)C(=O)N1CCC[C@H](N1)C(=O)OCC(C)(C)C2 [Compound A224] , what pIC50 is on record?
A) 7.00 to 8.00

----------
- ASSAY_SYSTEM: KRAS G13D (Homo sapiens (Human), UniProt P01116+P62937, G13D)
- Sequence (P01116 other isoform, or with tags, fused parts or gaps G13D, one chain of several): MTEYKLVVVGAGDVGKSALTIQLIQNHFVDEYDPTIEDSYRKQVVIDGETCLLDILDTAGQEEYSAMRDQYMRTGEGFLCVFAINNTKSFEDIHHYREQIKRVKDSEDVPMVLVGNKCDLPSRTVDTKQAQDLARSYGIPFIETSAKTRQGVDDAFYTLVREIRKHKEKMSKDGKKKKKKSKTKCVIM
- TEST_SUMMARY: Ras-Raf disruption/FRET/MOA assay (BRAF RBD, Cyclophilin A)
- Assay type: biochemical
- TEST_SETTINGS: read-out: KRAS G13D FRET data IC50
pIC50: −log10 of the molar value.
MEASURED_PARAMETER: pIC50

Q) For the molecule CCn1c(-c2cccnc2[C@H](C)OC)c2c3cc(ccc31)-c1cc(O)cc(c1)C[C@H](NC(=O)[C@H](C(C)C)N(C)C(=O)[C@H]1CCN(C(C)=O)C1)C(=O)N1CCC[C@H](N1)C(=O)OCC(C)(C)C2 [Compound A5] , what pIC50 is on record?
A) 6.00 to 7.00

Q) For the molecule CCn1c(-c2cc(N3CCN(C)CC3)cnc2[C@H](C)OC)c2c3cc(ccc31)-c1csc(n1)C[C@H](NC(=O)[C@H](C(C)C)N(C)C(=O)[C@@H]1OCC[C@@H]1c1cccnc1)C(=O)N1CCC[C@H](N1)C(=O)OCC(C)(C)C2 [Compound A490] , what pIC50 is on record?
A) 5.00 to 6.00

Q) For the molecule CCn1c(-c2cnccc2COC)c2c3cc(ccc31)-c1cc(O)cc(c1)C[C@H](NC(=O)[C@H](C(C)C)N(C)C(=O)[C@H]1CCN(C(=O)CO)C1)C(=O)N1CCC[C@H](N1)C(=O)OCC(C)(C)C2 [Compound A20] , what pIC50 is on record?
A) 6.00 to 7.00

Q) For the molecule CCn1c(-c2cccnc2[C@H](C)OC)c2c3cc(ccc31)-c1csc(n1)C[C@H](NC(=O)[C@H](C(C)C)N(C)C(=O)[C@@H]1OCC[C@@H]1c1ccccc1)C(=O)N1CCC[C@H](N1)C(=O)OCC(C)(C)C2 [Compound A585] , what pIC50 is on record?
A) 5.00 to 6.00

Q) For the molecule CCn1c(-c2cccnc2[C@H](C)OC)c2c3cc(ccc31)-c1csc(n1)C[C@H](NC(=O)[C@H](C(C)C)N(C)C(=O)N1CC[C@@H]1C)C(=O)N1CCC[C@H](N1)C(=O)OCC(C)(C)C2 [Compound A304] , what pIC50 is on record?
A) 6.00 to 7.00

New cases:
Q) For the molecule CCn1c(-c2cccnc2[C@H](C)OC)c2c3cc(ccc31)-c1cc(O)cc(c1)C[C@H](NC(=O)[C@H](C(C)C)N(C)C(=O)[C@H]1C[C@H]1F)C(=O)N1CCC[C@H](N1)C(=O)OCC(C)(C)C2 [Compound A162] , what pIC50 is on record?
A) 7.00 to 8.00

Q) For the molecule CCn1c(-c2cccnc2[C@H](C)OC)c2c3cc(ccc31)-c1csc(n1)C[C@H](NC(=O)[C@H](C(C)C)N(C)C(=O)N1CC[C@@]13CCCNC3)C(=O)N1CCC[C@H](N1)C(=O)OCC(C)(C)C2 [Compound A435] , what pIC50 is on record?
A) 6.00 to 7.00

----------
- ASSAY_SYSTEM: KRAS G12C (Homo sapiens (Human), UniProt P01116+P62937, G12C)
- Sequence (P01116-2 other isoform, or with tags, fused parts or gaps G12C, one chain of several): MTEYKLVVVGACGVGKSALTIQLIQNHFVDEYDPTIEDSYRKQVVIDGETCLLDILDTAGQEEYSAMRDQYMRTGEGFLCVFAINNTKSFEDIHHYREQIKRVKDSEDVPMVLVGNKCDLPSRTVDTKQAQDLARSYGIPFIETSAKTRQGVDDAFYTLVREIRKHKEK
- TEST_SUMMARY: Ras-Raf disruption/FRET/MOA assay (BRAF RBD, Cyclophilin A)
- Assay type: biochemical
- TEST_SETTINGS: read-out: KRAS G12C FRET IC50
Property: IC50; scope: individual molecules

Q) For the molecule CCn1c(-c2cccnc2[C@H](C)OC)c2c3cc(ccc31)-c1cccc(c1)C[C@H](NC(=O)[C@H](C(C)C)N(C)C(=O)[C@H]1OCC[C@H]1c1ccccc1)C(=O)N1CCC[C@H](N1)C(=O)OCC(C)(C)C2 , what IC50 is on record?
A) 1 to 10 µM

New cases:
Q) For the molecule CCn1c(-c2cnccc2COC)c2c3cc(ccc31)-c1cc(O)cc(c1)C[C@H](NC(=O)[C@H](C(C)C)N(C)c1cnc(N)[nH]c1=O)C(=O)N1CCC[C@H](N1)C(=O)OCC(C)(C)C2 , what IC50 is on record?
A) 1 to 10 µM
